// data source = patent US6066628A

- Test system: M. smegmatis
- Format: cell-based, Mycobacterium smegmatis
- TEST SETTINGS: M. smegmatis LR222; dark (Table 10)
Recorded MIC for the following compounds
Entry rule: numbers only, all in µg/mL.

Completed entries (count: 3):
| COMPOUND | MIC / µg/mL |
| --- | --- |
| C=CC1=C(C)C2=Cc3c(C=C)c(C)c4[n]3[Ga][n]3c(c(C)c(CCC(=O)O)c3=CC3=NC(=C4)C(C)=C3CCC(=O)O)=CC1=N2 [Ga-PPIX, Gallium (III) protoporphyrin IX chloride] | 0.4 |
| CCC1=C(CC)c2cc3[nH]c(cc4nc(cc5[nH]c(cc1n2)c(CC)c5CC)C(CC)=C4CC)c(CC)c3CC.[Ga] [GA-OEP] | 5 |
| CCC1=C(C)C2=Cc3c(C)c(CCC(=O)O)c4[n]3[Ga][n]3c(c(C)c(CC)c3=CC3=NC(=C4)C(CCC(=O)O)=C3C)=CC1=N2 [GA-MP-IX] | 0.4 |

Which MIC is reported for this compound? C1=CC2=NC1=Cc1ccc3[n]1[Ga][n]1c(ccc1=CC1=NC(=C3)C=C1)=C2 [GA-POR] 5

// same read-out, input: C=Cc1c(C)c2cc3nc(c(CC(=O)O)c4[nH]c(cc5nc(cc1[nH]2)C(C)=C5CC)c(C)c4C(=O)O)[C@@H](CCC(=O)O)[C@@H]3C [Ce6, chlorin e6, reference compound] 20

// same read-out, input: C=Cc1c(C)c2[n]3c1C=C1N=C(C=c4c(C)c(C(=O)O)c([n]4[Ga]3[Cl])=C(CC(=O)O)C3=NC(=C2)C(C)C3CCC(=O)O)C(CC)=C1C (stereo not drawn) [GA-Ce6, Ga-chlorin e6] 0.4
